Assay: Cookie comprising metformin consumed by human volunteers; blood samples
Type: in vivo
Settings: human, blood, oral, 250 mg, subject 1; 1 hr after consumption; one cookie (250 mg metformin), empty stomach
property.name: concentration at 1 h

// concentration at 1 h value for CN(C)C(=N)NC(=N)N [metformin, N,N-dimethylimidodicarbonimidic diamide] : < 500 ng/mL

----------
Assay: Cookie comprising metformin consumed by human volunteers; blood samples
Type: in vivo
Settings: human, blood, oral, 250 mg, subject 1; 4 hrs after consumption; one cookie (250 mg metformin), empty stomach
Protocol: A cookie dough was prepared comprising 1000 mg fine-ground metformin per 100 g conventional cookie dough, by mixing fine-ground metformin into the dough. 40 droplets of lemon juice per 100 g dough were added to the dough comprising the metformin, in order to neutralise the bitter taste of the metformin. Thereafter, the dough was divided in pieces of 25 g, from which pieces cookies were baked in a conventional way. […]
property.name: concentration at 4 h (ng/mL)
Numbers only; they are read as ng/mL.

Entry under test: CN(C)C(=N)NC(=N)N [metformin, N,N-dimethylimidodicarbonimidic diamide] . Its concentration at 4 h was 800

----------
Assay: Cookie comprising metformin consumed by human volunteers; blood samples
Format: in vivo
Settings: human, blood, oral, 250 mg, subject 2; 4 hrs after consumption; one cookie (250 mg metformin), empty stomach
property.name: concentration at 4 h (µg/mL)
Just the number please, in µg/mL, no unit attached.

For CN(C)C(=N)NC(=N)N [metformin, N,N-dimethylimidodicarbonimidic diamide] the compound record lists concentration at 4 h as 0.6

----------
Assay: Cookie comprising metformin consumed by human volunteers; blood samples
Format: in vivo
Conditions: human, blood, oral, 250 mg, subject 2; 2 hrs after consumption; one cookie (250 mg metformin), empty stomach
property.name: concentration at 2 h

According to the records, this compound CN(C)C(=N)NC(=N)N [metformin, N,N-dimethylimidodicarbonimidic diamide] displays concentration at 2 h of < 0.5 µg/mL

----------
Experiment: Cookie comprising metformin consumed by human volunteers; blood samples
Assay type: in vivo
Conditions: human, blood, oral, 250 mg, subject 2; before consumption; one cookie (250 mg metformin), empty stomach
property.name: concentration at 0 h

Memo: CN(C)C(=N)NC(=N)N [metformin, N,N-dimethylimidodicarbonimidic diamide] , reported concentration at 0 h: < 0.5 µg/mL

----------
Assay: Clinical test: double-blind trial of yoghurt drink with added metformin, 6 weeks
Conditions: both, human, blood, oral
property.name: concentration at 24 h

Value of measured concentration at 24 h for the entry CN(C)C(=N)NC(=N)N [metformin, N,N-dimethylimidodicarbonimidic diamide] : < 250 ng/mL
